biological target: T1, Recombinant human CD137 homotrimer (R&D systems), biotinylated (human, UniProt Q07011 24-186, limits assumed, biotinylated with EZ-Link Sulfo-NHS-LC-LC-Biotin); experiment: SPR (Biacore T200), biotinylated CD137 on streptavidin (n = 2)
T1 construct: also called biotinylated CD137
Starred links: 1 amine or outer side, 2 acyl side, 3 side chain; linkers in the order of their positions; H or OH if unused. Positions of bridges follow the written chain, without caps; N, C: chain ends. Non-standard residues stand in square brackets, D forms with d. No end group written: not given here. TATA = O=C(CC[*:1])N1CN(C(=O)CC[*:2])CN(C(=O)CC[*:3])C1; Nle = CCCC[C@H](N)C(=O)O; Ac5c = NC1(C(=O)O)CCCC1
REPORTED_PROPERTY: pKd
Recall that pKd is obtained by taking minus log10 of the concentration measured in molar.

Short answer for Ac-ACIEE[Ac5c]QYCFADPY[Nle]CA (linker 2-9-16 via TATA, also called Ac-(74-01-04) Ac5c4 Nle12) [BCY8665] : pKd was 6.70
